Numbers sourced from patent EP4692089A1.

- target-entity: AAK1 (30-330) protein (Homo sapiens)
- Construct: (His)6x (N); TEV protease cleavage site (N)
- Sequence (Q2M2I8 30-330): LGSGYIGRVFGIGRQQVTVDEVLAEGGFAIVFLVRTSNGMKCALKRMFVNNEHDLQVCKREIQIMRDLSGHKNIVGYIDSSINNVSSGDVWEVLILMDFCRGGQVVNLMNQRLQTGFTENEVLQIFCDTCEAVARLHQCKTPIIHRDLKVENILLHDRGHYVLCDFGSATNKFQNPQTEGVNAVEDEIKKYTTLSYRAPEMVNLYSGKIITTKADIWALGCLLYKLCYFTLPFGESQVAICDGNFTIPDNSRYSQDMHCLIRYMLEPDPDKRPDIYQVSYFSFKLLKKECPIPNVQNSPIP
- protocol-details: CETSA test of binding ability to AAK1 protein (Western blot)
pEC50: −log10 of the molar value.
endpoint-label: pEC50

1. CC(C)C[C@@](C)(N)COc1ccc(-c2ccnc3[nH]cnc23)nc1C(F)F; 6.00 to 7.00

Request: pEC50, test system AAK1 (30-330) protein (Homo sapiens), entry CC(C)C[C@@](C)(N)COc1ccc(-c2c[nH]c3ncccc23)nc1C(F)F 7.00 to 8.00

Lab note: need pEC50 for CC(C)C[C@](C)(N)COc1ccc(-c2ccnc3[nH]cnc23)nc1C(F)F on AAK1 (30-330) protein (Homo sapiens), anyone have it? 7.00 to 8.00

Give pEC50 (AAK1 (30-330) protein (Homo sapiens)) of the following compound: CC(C)C[C@@](C)(N)COc1ccc(-c2ccnc3c2nc(C(F)(F)F)n3C)nc1C(F)F 7.00 to 8.00

Lab request: please report pEC50 under test system AAK1 (30-330) protein (Homo sapiens) for CC(C)C[C@](C)(N)COc1ccc(-c2cn(C)c3ncc(F)cc23)nc1C(F)F > 8.00

Look up pEC50 with AAK1 (30-330) protein (Homo sapiens) for this compound: CC(C)C[C@](C)(N)COc1ccc(-c2c[nH]c3ncccc23)nc1C(F)F 7.00 to 8.00
